Each entry below carries its recorded SI SW620.
- System: SW620 cells
- MEASUREMENT_DESCRIPTION: MTT assay, SW620
- Assay type: cell-based, human
- CONDITION_PARAMETERS: SI = IC50 for normal cell line (HaCaT)/IC50 cancer cell line

MOLECULE | SI SW620
CCCCCCCCCCCCCCCCCC(=O)N1CCCC2CN(c3c(F)cc4c(=O)c(C(=O)O)cn(C5CC5)c4c3OC)CC21 (stereo not shown) [Compound 16m] | 12.5
CCCCC/C=C\C/C=C\C/C=C\CCCCC(=O)N1CCCC2CN(c3c(F)cc4c(=O)c(C(=O)O)cn(C5CC5)c4c3OC)CC21 (stereo not shown) [Compound 12m] | 4.8
CCCCC/C=C\C/C=C\CCCCCCCC(=O)N1CCCC2CN(c3c(F)cc4c(=O)c(C(=O)O)cn(C5CC5)c4c3OC)CC21 (stereo not shown) [Compound 11m] | 12.5
CCCCC/C=C\C/C=C\C/C=C\C/C=C\CCCC(=O)N1CCCC2CN(c3c(F)cc4c(=O)c(C(=O)O)cn(C5CC5)c4c3OC)CC21 (stereo not shown) [Compound 13m] | 2.4
C=CCCCCC(=O)N1CCCC2CN(c3c(F)cc4c(=O)c(C(=O)O)cn(C5CC5)c4c3OC)CC21 (stereo not shown) [Compound 10m] | 14.1
C/C=C/C(=O)N1CCCC2CN(c3c(F)cc4c(=O)c(C(=O)O)cn(C5CC5)c4c3OC)CC21 (stereo not shown) | 2.6
CCCCCCCC(=O)N1CCCC2CN(c3c(F)cc4c(=O)c(C(=O)O)cn(C5CC5)c4c3OC)CC21 (stereo not shown) [Compound 15m] | 18.6
CC/C=C\C/C=C\C/C=C\C/C=C\C/C=C\C/C=C\CCC(=O)N1CCCC2CN(c3c(F)cc4c(=O)c(C(=O)O)cn(C5CC5)c4c3OC)CC21 (stereo not shown) | 8.7
CC/C=C\C/C=C\C/C=C\CCCCCCCC(=O)N1CCCC2CN(c3c(F)cc4c(=O)c(C(=O)O)cn(C5CC5)c4c3OC)CC21 (stereo not shown) | 6.2
CCCCCCCC/C=C\CCCCCCCC(=O)N1CCCC2CN(c3c(F)cc4c(=O)c(C(=O)O)cn(C5CC5)c4c3OC)CC21 (stereo not shown) | 27.1
CCCCCCCC/C=C/CCCCCCCC(=O)N1CCCC2CN(c3c(F)cc4c(=O)c(C(=O)O)cn(C5CC5)c4c3OC)CC21 (stereo not shown) | 10.5
C/C=C/C=C/C(=O)N1CCCC2CN(c3c(F)cc4c(=O)c(C(=O)O)cn(C5CC5)c4c3OC)CC21 (stereo not shown) | 25.4
CCCCCCCCCCCCCCCC(=O)N1CCC[C@H]2CN(c3c(F)cc4c(=O)c(C(=O)O)cn(C5CC5)c4c3OC)C[C@H]21 | 9.3

---

Each entry below carries its recorded MIC.
- Test system: S. aureus ATCC 6538
- MEASUREMENT_DESCRIPTION: MIC, twofold microdilution, standard strain
- Type: cell-based
- CONDITION_PARAMETERS: Staphylococcus aureus, ATCC6538; 18 h of treatment; read-out: MIC S. aureus ATCC 6538

MOLECULE | ASSAYED_SYSTEM | MIC
COc1c(N2CC3CCCN(C(C)=O)C3C2)c(F)cc2c(=O)c(C(=O)O)cn(C3CC3)c12 (stereo not shown) [Compound 14m] | S. aureus ATCC 6538 | 0.25 µg/mL
CCCCC/C=C\C/C=C\CCCCCCCC(=O)N1CCCC2CN(c3c(F)cc4c(=O)c(C(=O)O)cn(C5CC5)c4c3OC)CC21 (stereo not shown) [Compound 11m] | S. aureus ATCC 6538 | > 512 µg/mL
C/C=C/C(=O)N1CCCC2CN(c3c(F)cc4c(=O)c(C(=O)O)cn(C5CC5)c4c3OC)CC21 (stereo not shown) | S. aureus ATCC 6538 | 0.5 µg/mL
COc1c(N2CC3CCCN(C(=O)/C=C(\C)CCC=C(C)C)C3C2)c(F)cc2c(=O)c(C(=O)O)cn(C3CC3)c12 (stereo not shown) | S. aureus ATCC 6538 | 8 µg/mL
CCCCCCCC/C=C/CCCCCCCC(=O)N1CCCC2CN(c3c(F)cc4c(=O)c(C(=O)O)cn(C5CC5)c4c3OC)CC21 (stereo not shown) | S. aureus ATCC 6538 | > 512 µg/mL
CC/C=C\C/C=C\C/C=C\CCCCCCCC(=O)N1CCCC2CN(c3c(F)cc4c(=O)c(C(=O)O)cn(C5CC5)c4c3OC)CC21 (stereo not shown) | S. aureus ATCC 6538 | 16 µg/mL
CCCCCCCC/C=C\CCCCCCCC(=O)N1CCCC2CN(c3c(F)cc4c(=O)c(C(=O)O)cn(C5CC5)c4c3OC)CC21 (stereo not shown) | S. aureus ATCC 6538 | 128 µg/mL
